Target or system Replicase polyprotein 1a (Severe acute respiratory syndrome-related coronavirus): recorded pKi listed per item.
The scale used: pKi is minus the common logarithm of the concentration in molar units.

q: What does the data say about its pKi? Entry: CC(C)C[C@H](NC(=O)C1CCC(=O)N1)C(=O)N[C@@H](C[C@@H]1CCNC1=O)C(=O)c1nc2ccccc2s1 (mixture of isomers)
a: 5.57

q: Check `CCc1c(C(=O)N[C@@H](CC(C)C)C(=O)N[C@@H](C[C@@H]2CCNC2=O)C(=O)c2nc3ccccc3s2)[nH]c2ccc(OC)cc12` too.
a: 5.12

q: Would you mind doing `COc1ccc2cc(C(=O)N[C@@H](CC(C)C)C(=O)N[C@@H](C[C@@H]3CCNC3=O)C(=O)c3nc4ccccc4s3)[nH]c2c1` as well?
a: 6.48

q: Proceed to `CC(C)C[C@H](NC(=O)c1cc2ccccc2o1)C(=O)N[C@@H](C[C@@H]1CCNC1=O)C(=O)c1nc2ccccc2s1`
a: 4.85

q: Again, but for `CC(C)C[C@H](NC(=O)c1ccc[nH]1)C(=O)N[C@@H](C[C@@H]1CCNC1=O)C(=O)c1nc2ccccc2s1`
a: 5.77

q: Ok, now `COc1ccc2[nH]c(C(=O)N[C@@H](CC(C)C)C(=O)N[C@@H](C[C@@H]3CCNC3=O)C(=O)c3nc4ccccc4s3)c(C)c2c1`
a: 5.17

q: Please answer likewise for `CC(C)C[C@H](NC(=O)c1nc2ccccc2s1)C(=O)N[C@@H](C[C@@H]1CCNC1=O)C(=O)c1nc2ccccc2s1`
a: 6.10

q: // repeat for `CC(C)C[C@H](NC(=O)c1cc2c(OC(C)C)cccc2[nH]1)C(=O)N[C@@H](C[C@@H]1CCNC1=O)C(=O)c1nc2ccccc2s1` and report
a: 7.32

q: Moving on to the next compound: `CC(C)C[C@H](NC(=O)c1c[nH]c2ccccc12)C(=O)N[C@@H](C[C@@H]1CCNC1=O)C(=O)c1nc2ccccc2s1`
a: 6.17

q: Let us now turn to CC(C)C[C@H](NC(=O)C1Cc2ccccc2N1)C(=O)N[C@@H](C[C@@H]1CCNC1=O)C(=O)c1nc2ccccc2s1 (stereo partly specified)
a: 6.92

q: Likewise for `CC(C)C[C@H](NC(=O)c1cc2cc(O)ccc2[nH]1)C(=O)N[C@@H](C[C@@H]1CCNC1=O)C(=O)c1nc2ccccc2s1` ?
a: 6.80
